- Test system: E21 (patient-derived glioblastoma stem cells of mesenchymal subtype);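 also: cell Painting imaging in 384-well plates, CellProfiler features reduced to at least 20 principal components, Euclidean distance versus same-plate DMSO vehicle wells (0.1% v/v), median over six images per well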
- test.name: phenotypic distance (Euclidean, principal components) from DMSO controls (arbitrary units); higher = stronger morphological change
- study.conditions: 111.1 nM; exposure time: 72 h
Structures can show the parent of a compound that is named as a salt.
reported.metric: phenotypic distance

Completed entries (count: 5):
CCCCCCCCCCCCCC(=O)O[C@@H]1[C@@H](C)[C@@]2(O)[C@@H](C=C(CO)C[C@]3(O)C(=O)C(C)=C[C@@H]23)[C@@H]2C(C)(C)[C@]12OC(C)=O [Phorbol 12-myristate 13-acetate]	2.1
N=C(NCCCCCCNC(=N)NC(=N)Nc1ccc(Cl)cc1)NC(=N)Nc1ccc(Cl)cc1	0.95
N=C(N)c1ccc(-c2ccc(-c3ccc(C(=N)N)cc3)o2)cc1 [Furamidine dihydrochloride]	0.567
CCCCC1C(=O)N(c2ccccc2)N(c2ccc(O)cc2)C1=O (stereo not given)	0.699
COc1ccc(C(=O)CC(=O)c2ccc(C(C)(C)C)cc2)cc1	0.818

Here are 6 compounds. What values of phenotypic distance were reported for them?
1. COc1cc2c[n+](C)c3c4cc5c(cc4ccc3c2cc1OC)OCO5 [Nitidine chloride]
2. COc1ccc2[nH]c([S+]([O-])Cc3ncc(C)c(OC)c3C)nc2c1 (stereo not given)
3. COc1ccc2c(c1)CC[C@@H]1[C@@H]2CC[C@]2(C)[C@@H](NCCCCCCN3C(=O)CCC3=O)CC[C@@H]12
4. C/C=C1\NC(=O)[C@H]2CSSCC/C=C/[C@H](CC(=O)N[C@H](C(C)C)C(=O)N2)OC(=O)[C@H](C(C)C)NC1=O
5. COC(=O)Nc1nc2cc(C(=O)c3ccc(F)cc3)ccc2[nH]1
6. COc1cccc2c(NCc3ccccc3)nc(-n3c(N)nc4ccccc43)nc12

Output:
1.99
0.648
0.893
6.75
1.63
0.655

----------
Could you please report measured surviving fraction for the items listed next?
- System: E57 (patient-derived glioblastoma stem cells of mesenchymal subtype);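 also: nuclei counted by high-content imaging of Hoechst-stained cells in laminin-coated 384-well plates, relative to 0.1% DMSO vehicle wells, with staurosporine as cell-death control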
- test.name: surviving fraction (nuclei count normalised to DMSO); higher = more cells surviving (less toxic)
- study.conditions: 333.3 nM; exposure time: 72 h
Structures can show the parent of a compound that is named as a salt.
One number for each entry.

Completed entries (count: 10):
COc1cc2c(c(OC)c1OC)-c1ccc(OC)c(=O)cc1[C@@H](NC(C)=O)CC2	0.0902
C[C@H]1Oc2cc(cnc2N)-c2c(nn(C)c2C#N)CN(C)C(=O)c2ccc(F)cc21	0.815
CN(C)C(=O)Oc1ccc[n+](C)c1 [Pyridostigmine iodide]	0.98
Cc1ccc(/C=N/NC(=O)c2n[nH]c3c2CCCC3)cc1	0.0911
COc1ccc([C@@H]2CC(=O)c3c(O)cc(O[C@@H]4O[C@H](CO[C@@H]5O[C@@H](C)[C@H](O)[C@@H](O)[C@H]5O)[C@@H](O)[C@H](O)[C@H]4O)cc3O2)cc1O	0.943
CCCCC1C(=O)N(c2ccccc2)N(c2ccc(O)cc2)C1=O (stereo unspecified)	1.06
C=C[C@H]1CN2CC[C@H]1C[C@@H]2[C@@H](O)c1ccnc2ccc(OC)cc12 [Quinidine hydrochloride monohydrate]	1.05
O=C(CCBr)N1CCN(C(=O)CCBr)CC1	1.07
COc1cc([C@@H]2c3cc4c(cc3[C@@H](O[C@@H]3O[C@@H]5CO[C@@H](c6cccs6)O[C@H]5[C@H](O)[C@H]3O)[C@H]3COC(=O)[C@H]23)OCO4)cc(OC)c1O [Teniposide]	0.167
C=C(C)[C@H]1Cc2c(ccc3c2O[C@@H]2COc4cc(OC)c(OC)cc4[C@@H]2C3=O)O1	0.941

Here are 4 compounds. What values of surviving fraction were reported for them?
1. Nc1ccn([C@@H]2O[C@H](CO)[C@@H](O)C2(F)F)c(=O)n1 [Gemcitabine HCl]
2. Nc1nc(=O)c2nc(CNc3ccc(C(=O)N[C@@H](CCC(=O)O)C(=O)O)cc3)cnc2[nH]1
3. Clc1ccc(COC(Cn2ccnc2)c2ccc(Cl)cc2Cl)cc1 (stereo unspecified) [Econazole nitrate]
4. CCC(C)(C)c1ccc(CC(C)CN2C[C@@H](C)O[C@@H](C)C2)cc1 (stereo partly specified) [Amorolfine hydrochloride]

Output:
1. 0.139
2. 1.01
3. 1.09
4. 0.957

Here are 7 compounds. What values of surviving fraction were reported for them?
1. CC(C)C[C@@H](C(=O)N[C@H](C(=O)OC1CCCC1)c1ccccc1)[C@H](O)C(=O)NO
2. CN(C)CCN(Cc1ccc(Cl)cc1)c1ccccn1 [Chloropyramine hydrochloride]
3. Clc1ccc(COC(Cn2ccnc2)c2ccc(Cl)cc2Cl)c(Cl)c1 (stereo unspecified)
4. Cc1nc2ccccn2c(=O)c1CCN1CCC(C(=O)c2ccc(F)cc2)CC1
5. Cc1cccn2c(=O)c(-c3nnn[nH]3)cnc12
6. Cc1cc(Nc2cc(CN3CCOCC3)c3nc(C)c(Cc4ccc(Cl)cc4F)n3n2)n[nH]1
7. COc1cc2c(cc1-c1c(C)noc1C)ncc1[nH]c(=O)n([C@H](C)c3ccccn3)c12

Output:
0.635
0.986
1.07
1.03
0.986
0.534
0.915

Here are 3 compounds. What values of surviving fraction were reported for them?
1. COc1cc2c(NC3CCN(C(C)C)CC3)nc(C3CCCCC3)nc2cc1OCCCN1CCCC1
2. CCn1cc(C(=O)O)c(=O)c2cc(F)c(N3CCNCC3)nc21
3. OCCN1CCN(CCCN2c3ccccc3Sc3ccc(Cl)cc32)CC1

Output:
[1.05, 1.06, 1.15]

Here are 3 compounds. What values of surviving fraction were reported for them?
1. C[C@H](Cc1cc2c(c(C(N)=O)c1)N(CCCO)CC2)NCCOc1ccccc1OCC(F)(F)F
2. CNCCc1ccccn1 [Betahistine mesylate]
3. Nc1ccn([C@H]2CC[C@@H](CO)O2)c(=O)n1

Output:
1. 0.955
2. 1.01
3. 0.982

Recorded values, source the supplement of paper PMC13207355.
